- system_under_test: PRMT5/MEP50 complex (Homo sapiens, UniProt O14744)
- Construct: purchased Reaction Biology Corporation
- Sequence (O14744 2-637 limits assumed): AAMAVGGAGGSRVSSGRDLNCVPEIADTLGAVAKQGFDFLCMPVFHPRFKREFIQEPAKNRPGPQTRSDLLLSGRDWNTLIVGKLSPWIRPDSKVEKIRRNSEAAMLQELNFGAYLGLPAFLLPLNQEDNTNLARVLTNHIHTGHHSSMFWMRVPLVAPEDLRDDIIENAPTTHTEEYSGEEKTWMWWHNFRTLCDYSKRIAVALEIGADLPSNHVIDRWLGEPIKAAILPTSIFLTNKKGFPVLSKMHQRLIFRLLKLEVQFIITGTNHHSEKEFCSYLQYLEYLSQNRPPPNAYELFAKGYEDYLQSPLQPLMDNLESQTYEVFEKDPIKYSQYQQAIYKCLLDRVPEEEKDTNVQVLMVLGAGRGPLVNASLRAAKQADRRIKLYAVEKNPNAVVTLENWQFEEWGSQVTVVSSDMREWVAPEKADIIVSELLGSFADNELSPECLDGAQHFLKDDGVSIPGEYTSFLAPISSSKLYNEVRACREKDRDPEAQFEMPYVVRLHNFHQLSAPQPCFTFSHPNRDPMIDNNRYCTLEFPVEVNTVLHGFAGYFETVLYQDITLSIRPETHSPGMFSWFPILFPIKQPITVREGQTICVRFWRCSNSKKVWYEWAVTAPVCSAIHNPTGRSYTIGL
- Sequence (Q9BQA1 2-342 partner limits assumed): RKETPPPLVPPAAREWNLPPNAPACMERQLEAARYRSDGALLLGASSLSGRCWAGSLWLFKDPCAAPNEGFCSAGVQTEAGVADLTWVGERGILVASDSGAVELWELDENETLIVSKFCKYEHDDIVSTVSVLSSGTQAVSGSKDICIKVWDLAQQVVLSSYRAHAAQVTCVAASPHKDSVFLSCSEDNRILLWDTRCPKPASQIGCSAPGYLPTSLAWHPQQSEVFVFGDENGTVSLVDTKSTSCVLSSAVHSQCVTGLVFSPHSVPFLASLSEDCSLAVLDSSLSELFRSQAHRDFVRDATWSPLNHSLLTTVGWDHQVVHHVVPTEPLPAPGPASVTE
- method: PRMT5:MEP50 HotSpot Assay (full-length histone H2A substrate, plus and minus MTA)
- Assay type: biochemical
- protocol_conditions: IC50 + 2 μM MTA, in the presence of 2 μM MTA
Counter-ions that a name gives are not always drawn.
Can you tell me pIC50 for the items I'm about to list?
One number for each entry, as −log10 of the molar value.

See these solved cases before continuing.
- molecule: "Cc1c(F)c(-c2c(-c3cc(C)c4c(=O)[nH]nc(CN)c4c3)cnn2C)c(C#N)c2ncc(Cl)cc12 (single isomer, unassigned) [Example 16-95]"
  pIC50: 6.10
- molecule: "Cn1ncc(-c2cc(Cl)c3c(=O)[nH]nc(CN)c3c2)c1-c1c(F)cc2ncc(Cl)cc2c1C#N (single isomer, unassigned) [Example 16-61]"
  pIC50: 6.66
- molecule: "Cn1ncc(-c2ccc3c(=O)[nH]nc(CN)c3c2)c1-c1ccc2n1C(=O)CCC2"
  pIC50: 6.00

Quick one: give me pIC50 for each item below, same order please.
1. CCOc1cc(-c2cnn(C)c2-c2c(F)c(C)cc(OC3CC3)c2C#N)cc2c(CN)n[nH]c(=O)c12 (single isomer, unassigned) [Example 16-75]
2. Cc1c(F)c(-c2c(-c3ccc4c(=O)[nH]nc(CN)c4c3)cnn2C)c(C#N)c2ccccc12 (single isomer, unassigned) [Example 16-13]
3. Cc1ncc(-c2ccc3c(=O)[nH]nc(CN)c3c2)n1-c1sc2ccccc2c1C#N
4. Cn1ncc(-c2ccc3c(=O)[nH]nc(CN)c3c2)c1-c1ccc2n1C(=O)CC2
5. Cc1c(F)c(-c2c(-c3cc(Cl)c4c(=O)[nH]nc(CN)c4c3)cnn2C)c(C#N)c2cc(Cl)cnc12 (single isomer, unassigned) [Example 16-110]
6. Cn1ncc(-c2ccc3c(=O)[nH]nc(CN)c3c2)c1-c1sc2c(C3CCCO3)cccc2c1C#N (centres unmarked) [Example 12-21, hydrochloride]

Output line:
5.30
6.63
5.83
6.24
7.72
6.89

Quick one: give me pIC50 for each item below, same order please.
1. CCOc1cc(-c2cnn(C)c2-c2c(F)c(Cl)c3ccccc3c2C#N)cc2c(CN)n[nH]c(=O)c12 (single isomer, unassigned) [Example 16-79]
2. Cn1ncc(-c2ccc3c(=O)[nH]nc(C4CCN4)c3c2)c1-c1sc2ccccc2c1C#N (centres unmarked)
3. Cc1ncn(-c2ccc3c(=O)[nH]nc(CN)c3c2)c1-c1sc2ccccc2c1C#N
4. Cn1ncc(-c2ccc3c(=O)[nH]nc(CN)c3c2)c1-c1c(C#N)cc2ncccc2c1F (single isomer, unassigned) [Example 16-92]
5. Cc1cnc2sc(-c3c(-c4ccc5c(=O)[nH]nc(CN)c5c4)cnn3C)c(C#N)c2c1 [Example 12-19, hydrochloride]
6. Cn1ncc(-c2ccc3c(=O)[nH]nc(CN)c3c2)c1-c1c(F)ccc(OC2CC2)c1C#N (single isomer, unassigned) [Example 16-22]
7. Cn1ncc(-c2ccc3c(=O)[nH]nc(CN)c3c2)c1-c1c(F)c(Cl)c2ccccc2c1C#N (single isomer, unassigned) [Example 16-10]

Output line:
1. 8.08
2. 5.84
3. 5.65
4. 5.69
5. 6.67
6. 6.97
7. 7.80

Quick one: give me pIC50 for each item below, same order please.
1. Cn1ncc(-c2cc(O)c3c(=O)[nH]nc(CN)c3c2)c1-c1sc2ccccc2c1C#N
2. Cn1ncc(-c2cnc3c(=O)[nH]nc(CN)c3c2)c1-c1sc2ccccc2c1C#N
3. Cn1ncc(-c2cc(Cl)c3c(=O)[nH]nc(CN)c3c2)c1-c1c(F)ccc(OC2CC2)c1C#N (atropisomer, axis not shown; (M)) [Example 16-56]
4. Cn1ncc(-c2cc(C(F)F)c3c(=O)[nH]nc(CN)c3c2)c1-c1sc2ccccc2c1C#N
5. Cn1ncc(-c2ccc3c(=O)[nH]nc(C4CNC4)c3c2)c1-c1sc2ccccc2c1C#N
6. Cn1ncc(-c2ccc3c(=O)[nH]nc(CN)c3c2)c1-c1c(C#N)cc2ccccc2c1Cl (single isomer, unassigned) [Example 16-6]
7. CCOc1cc(-c2cnn(C)c2-c2c(F)c(C)c3ncc(Cl)cc3c2C#N)cc2c(CN)n[nH]c(=O)c12 (single isomer, unassigned) [Example 16-112]
8. Cn1ncc(-c2ccc3c(=O)[nH]nc(CN)c3c2)c1-c1c(F)cnc(OC2CC2)c1C#N (atropisomer, axis not shown; (M)) [Example 16-136]

Output line:
1: 6.63; 2: 5.88; 3: 6.95; 4: 8.39; 5: 5.37; 6: 7.55; 7: 7.29; 8: 6.41

Quick one: give me pIC50 for each item below, same order please.
1. Cn1ncc(-c2ccc3c(=O)[nH]nc(CN)c3c2)c1-c1c(C#N)sc2ccccc12
2. C[C@H]1C[C@@H]1Oc1ccc(F)c(-c2c(-c3ccc4c(=O)[nH]nc(CN)c4c3)cnn2C)c1C#N (single isomer, unassigned) [Example 16-68]

Output line:
[6.29, 7.28]
